- Test system: NCI/ADR-RES
- Test Method Notes: NCI tumour cell line growth inhibition, 48 h
The source made the active and inactive calls. Rule as the data show it: active = GI50 up to about 1.1 µM and inactive = higher.
For each of the molecules below, state its GI50.

>>> df
                                   molecule       recorded_value
0  COC(=O)CNC(=O)CSc1nnc(COc2ccc(Cl)cc2)n1-c1ccccc1  > 100 µM (inactive)
1   CCCCNC(=O)c1cc2c(cc1Cl)Sc1nccn1S2(=O)=O   79.6 µM (inactive)
2  Cc1cc(C)nc(NS(=O)(=O)c2ccc(Nc3c4ccccc4nc4c(C(=O)NC(CO)(CO)CO)cccc34)cc2)n1  > 100 µM (inactive)
3   CSc1c(C#N)c(O)nc(N)c1C(=O)Nc1ccc(Cl)cc1   17.4 µM (inactive)

Could you now consider this next molecule?
# lookup: GI50 of O=C1CC(NC2CC(=O)c3c(Br)sc(Br)c32)c2c(Br)sc(Br)c21 (stereo not given) 13.9 µM (inactive)

----------
- System: SK-MEL-2
- Test Method Notes: NCI tumour cell line growth inhibition, 48 h
The source made the active and inactive calls. No stated cut-off is given here; in the data, active = GI50 up to about 1.1 µM and inactive = higher.
Kindly state GI50 for each of the entries shown.

Solved entries (count: 5):
                                   compound       recorded_value
0  Cc1ccc(N(C(=O)Nc2ccccc2)C2=NCC(C)S2)cc1C (configuration not stated)   17.4 µM (inactive)
1            CN(C)c1ccc(/C=C2\CCCCCC2=O)cc1  > 100 µM (inactive)
2  O=C(O)c1ccc2c(c1)C(=O)N(c1ccc(S(=O)(=O)c3ccc(N4C(=O)c5ccc(C(=O)O)cc5C4=O)cc3)cc1)C2=O  > 100 µM (inactive)
3  O=C1C(Cl)C2(CC(/C=C/c3ccccc3O)=NN2c2cccc(S(=O)(=O)O)c2)N1c1nc2ccccc2s1 (configuration not stated)   16.8 µM (inactive)
4  CN(C)C(=O)Oc1c(-c2ccccc2)c(=O)n2c3ccccc3n3c(=O)n(C)c(=O)c1c23  > 100 µM (inactive)

Batch request: GI50 for each of the following compounds.
1. Oc1cccc(-c2cc(=S)ss2)c1
2. O=C(CN1CCCC1)Nc1ccc2sc3ccccc3c(=O)c2n1
3. CC(=O)C(=N\Nc1ccc(Cl)cc1)/C(C)=N/c1ccc(C)cc1
4. COC(=O)NCCc1n[nH]c2c1C(=O)C=C(Nc1ccccc1OC)C2=O

1. 15.6 µM (inactive)
2. 21.1 µM (inactive)
3. 18.4 µM (inactive)
4. 22.2 µM (inactive)

// each listed compound needs a value for GI50
1. C/N=c1\sc2nc(C#N)c(C#N)nc2n1C
2. CCOC(=O)c1nnsc1NN
3. C[N+](C)=c1[nH]c2ccccc2[nH]1

["16.5 µM (inactive)", "> 100 µM (inactive)", "> 100 µM (inactive)"]

----------
- Tested on: SNB-75
- Test Method Notes: NCI tumour cell line growth inhibition, 48 h
Calls of active or inactive are those of the source. No stated cut-off is given here; in the data, active = GI50 up to about 1.1 µM and inactive = higher.
Provide the recorded GI50 for the entries that follow.

Look over these answered cases.
Molecule	GI50
COC(=O)C1CCC(=O)N1C(c1ccc2c(c1)OCO2)c1ccc2c(c1)OCO2 (centres undefined)	> 100 µM (inactive)
Cc1nc2nn(Cc3ccccc3)cc2c(=O)o1	> 100 µM (inactive)
CN(C)c1n/c(=N/Cc2ccccn2)ss1	> 10 µM (inactive)
NC(=O)C1=C(O)C[C@@H]2CC3Cc4cccc(O)c4C(=O)C3=C(O)[C@]2(O)C1=O (some centres undefined)	2.43 µM (inactive)
COC(=O)C1CCC(N2C(=O)CCC2C(=O)OC)=N1 (centres undefined)	> 100 µM (inactive)

// input: 4 molecules below; output: GI50 for each
1. C/C=C(\C)c1cc(=O)c2c(C)cc3c(c2o1)C(=O)c1c(O)c(C2CC(C)(N(C)C)C(OC(C)=O)C(C)O2)cc(C2CC(N(C)C)C(O)C(C)O2)c1C3=O (centres undefined)
2. O=c1sc(-c2nc3ccccc3[nH]2)c(/N=C/c2ccccc2)n1-c1ccccc1
3. CN(C)c1ccc(/C=C/c2ccc(/C=C/c3ccc(N(C)C)cc3)cc2)cc1
4. CCN(CC)CCC(=O)c1ccc(Oc2ccc(F)cc2)cc1

1: 1.64 µM (inactive); 2: 21.6 µM (inactive); 3: > 100 µM (inactive); 4: 26.7 µM (inactive)

Quick batch: GI50 for everything below.
1. CS(=O)(=O)NNS(=O)(=O)c1ccc(Br)cc1
2. CO/N=C1\CC(NC(=O)CNC(=O)OC(C)(C)C)c2ccsc21 (centres undefined)
3. C/C(=N\NC(=S)N1CCCCCC1)c1cccc2cccnc12
4. CN(C(=O)CC(=O)CP(=O)(c1ccccc1)c1ccccc1)c1ccccc1

["87.7 µM (inactive)", "53.1 µM (inactive)", "23 µM (inactive)", "> 100 µM (inactive)"]

I would be grateful if you could share the reported GI50 for `Cc1ccc(/N=C2N=C(Cl)/C(=C\c3ccco3)N\2)cc1` . > 100 µM (inactive)

----------
- Tested on: SK-OV-3
- Test Method Notes: NCI tumour cell line growth inhibition, 48 h
The source made the active and inactive calls. Cut-off read from the data, not from the text of the source: active = GI50 up to about 1.1 µM and inactive = higher.
Measurement Label: GI50

Solved cases (5 shown):
>>> df
                                   molecule       recorded_value
0  COc1cc(C(=O)C/C(CCC(=O)Nc2ccccc2[N+](=O)[O-])=N\NC(=O)C(N)=O)ccc1O  > 100 µM (inactive)
1  CN(C(=O)CC(=O)CP(=O)(c1ccccc1)c1ccccc1)c1ccccc1  > 100 µM (inactive)
2            CN(C)c1ccc(/C=C2\CCCCCC2=O)cc1  > 100 µM (inactive)
3  O=c1sc(-c2nc3ccccc3[nH]2)c(/N=C/c2ccccc2)n1-c1ccccc1   42.6 µM (inactive)
4  CN(Cc1cnc2nc(N)nc(N)c2n1)c1ccc(C(=O)NCS(=O)(=O)O)cc1  > 100 µM (inactive)

Please supply GI50 for each of the following items, keeping them in order.
1. CC1=NN(c2nc(N)nc(/C(C#N)=C/c3cccn3-c3cc(Cl)cc(Cl)c3)n2)C(C)(C)C1
2. CCN(CC)CCNc1ccc2ncn3c4ccccc4c(=O)c1c23
3. CCOc1cc2c(cc1O)CC[C@@H]1[C@@H]2CC[C@]2(C)[C@@H](O)CC[C@@H]12

> 100 µM (inactive)
2.45 µM (inactive)
0.138 µM (active)

Go through the list and state GI50 for each entry.
1. CCn1c(=O)nc2n(-c3ccc(SC)cc3)c3ccccc3nc-2c1=O
2. CC(C)n1c(=O)[nH]n(-c2ccccc2)c1=O
3. O=C1/C(=C/c2cccc(Br)c2)Cc2ccccc21
4. COP1(=O)Oc2ccccc2C(=O)C(C(F)(F)F)(C(F)(F)F)O1 (stereo not given)

1: > 100 µM (inactive); 2: > 100 µM (inactive); 3: 93.1 µM (inactive); 4: > 100 µM (inactive)

Please report GI50 for every entry that follows.
1. OCCN(CCO)c1ccc2c(c1)Cc1ccccc1-2
2. OC12c3ccccc3C1(N1CCOCC1)CCCCC21OCCCO1 (stereo not given)
3. CC1(C)N=C(N)N=C(N)N1c1cccc(C(=O)Nc2ccc(S(=O)(=O)F)cc2)c1
4. COc1cccc(-c2nc(N)c(C#N)c3c2CCS(=O)(=O)c2ccc(C)cc2-3)c1
5. CC1(C)N[PH]2(Nc3ccccc3O2)OC1=O
6. O=c1c2cc(Br)cc(Br)c2nc(CCCl)n1-c1ccc(O)c([N+](=O)[O-])c1
7. CC1(C)C2=CCCC(=O)[C@@]2(C)CC[C@@H]1O
8. O=C(OCc1ccccc1[N+](=O)[O-])N1c2ccccc2[C@@]23O[C@]24CCC[C@H]3C#C/C=C\C#C[C@H]14

1: 50.6 µM (inactive); 2: > 100 µM (inactive); 3: > 100 µM (inactive); 4: 46.7 µM (inactive); 5: > 100 µM (inactive); 6: 15.8 µM (inactive); 7: > 100 µM (inactive); 8: > 100 µM (inactive)

Quick batch: GI50 for everything below.
1. Cn1c2c(c3ccccc31)C1CCCCCCC1C1C(=O)OC(=O)C21 (stereo not given)
2. CN(C)C(=O)Oc1c(-c2ccccc2)c(=O)n2c3ccccc3n3c(=O)n(C)c(=O)c1c23
3. COc1cc(/C=C2\N=C(c3ccccc3)N(/N=C/c3cc4cc(C)ccc4nc3Cl)C2=O)ccc1O
4. c1ccc2c3nnc(c2c1)SCCSCCSc1nnc(c2ccccc12)SCCSCCS3
5. c1ccc(C2=C(c3ccccc3)P(c3ccccc3)C2)cc1 (stereo not given)

1: 32.7 µM (inactive); 2: > 100 µM (inactive); 3: 88.1 µM (inactive); 4: > 100 µM (inactive); 5: > 100 µM (inactive)

----------
- Tested on: U-251
- Test Method Notes: NCI tumour cell line growth inhibition, 48 h
The source made the active and inactive calls. No stated cut-off is given here; in the data, active = GI50 up to about 1.1 µM and inactive = higher.
Measurement Label: GI50

Recorded GI50, per entry:
>>> df
                                   compound  measurement_label       recorded_value
0  COC(=O)C1CCC(=O)N1C(c1ccc2c(c1)OCO2)c1ccc2c(c1)OCO2 (stereo not drawn)               GI50  > 100 µM (inactive)
1  Cc1cc(-c2nc3cc(F)ccc3s2)ccc1NC(=O)[C@@H](N)CCCCN               GI50   1.88 µM (inactive)

Give the measured GI50 of CC(=O)OCC1OC(n2c(-c3ccc(C)cc3)cc(-c3ccccc3)c(C#N)c2=O)C(OC(C)=O)C(OC(C)=O)C1OC(C)=O (stereo not drawn) . > 100 µM (inactive)
